Each recorded value in this set is attributed to patent US20230183218A1.

Target: Human M4 (Homo sapiens, UniProt P08173)
Construct: expressed in transfected cells; host or cells: CHO-K1 (ATCC), stably co-expressing chimeric G protein Gqi5
Sequence (P08173 1-479): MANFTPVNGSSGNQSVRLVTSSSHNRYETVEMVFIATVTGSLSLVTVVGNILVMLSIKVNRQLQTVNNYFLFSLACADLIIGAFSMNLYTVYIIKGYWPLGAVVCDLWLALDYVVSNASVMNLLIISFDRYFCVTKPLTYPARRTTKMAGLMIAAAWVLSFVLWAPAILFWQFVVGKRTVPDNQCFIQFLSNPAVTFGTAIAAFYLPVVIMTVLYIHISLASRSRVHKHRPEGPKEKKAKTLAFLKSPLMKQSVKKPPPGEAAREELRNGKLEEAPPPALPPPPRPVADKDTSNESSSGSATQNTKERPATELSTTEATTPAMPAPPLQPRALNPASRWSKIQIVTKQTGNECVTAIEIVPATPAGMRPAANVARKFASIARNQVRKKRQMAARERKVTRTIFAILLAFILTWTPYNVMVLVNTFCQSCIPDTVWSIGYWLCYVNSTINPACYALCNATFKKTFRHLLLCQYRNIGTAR
Assay: mAChR M4 cell-based functional assay (calcium flux, antagonist mode vs EC80 acetylcholine), human M4/Gqi5/CHO-K1 cells
Settings: CHO-K1; % ACh maximum at 30 μM; human M4; read-out: Human M4 Emin (%)
Examples of compounds with documented remaining activity at 30 µM follow.
observedProperty: remaining activity at 30 µM

# compound, tgt, result
rows = [
    ("Fc1ccc(Cl)c(-c2ccc(N[C@H]3C[C@@H]4CN(C5CCOCC5)C[C@@H]4C3)nn2)c1", "Human M4 (Homo sapiens, UniProt P08173)", "5%"),
    ("Cc1cc(CN2C[C@H]3C[C@H](Nc4ccc([S+]([O-])c5ccccc5)nn4)C[C@H]3C2)ccc1F (stereo partly drawn)", "Human M4 (Homo sapiens, UniProt P08173)", "3%"),
    ("O=C(Nc1cc(F)ccc1Cl)c1ccc(N[C@H]2C[C@@H]3CN(CC4CCOCC4)C[C@@H]3C2)nn1", "Human M4 (Homo sapiens, UniProt P08173)", "4%"),
    ("O=C(c1ccc(N[C@H]2C[C@@H]3CN(CC4CCOCC4)C[C@@H]3C2)nn1)N1CCCCC1", "Human M4 (Homo sapiens, UniProt P08173)", "14%"),
    ("CC(=O)Nc1ccc(-c2ccc(N[C@H]3C[C@@H]4CN(C5CCOC(C)(C)C5)C[C@@H]4C3)nn2)cn1 (stereo partly drawn)", "Human M4 (Homo sapiens, UniProt P08173)", "4%"),
    ("CC1(C)CC(N2C[C@H]3C[C@H](Nc4ccc([S+]([O-])c5ccccc5)nn4)C[C@H]3C2)CCO1 (stereo partly drawn)", "Human M4 (Homo sapiens, UniProt P08173)", "5%"),
    ("CC1(C)CC(N2C[C@H]3C[C@H](Nc4ccc5nncn5n4)C[C@H]3C2)CCO1 (stereo partly drawn)", "Human M4 (Homo sapiens, UniProt P08173)", "52%"),
    ("CC1(C)CC(N2C[C@H]3C[C@H](Nc4ccc(-c5cccnc5)nn4)C[C@H]3C2)CCO1 (stereo partly drawn)", "Human M4 (Homo sapiens, UniProt P08173)", "4%"),
    ("Fc1ccc(Cl)c(-c2ccc(N[C@H]3C[C@@H]4CN(C5CCCOC5)C[C@@H]4C3)nn2)c1 (stereo partly drawn)", "Human M4 (Homo sapiens, UniProt P08173)", "3%"),
    ("O=S(=O)(c1ccc(N[C@H]2C[C@@H]3CN(CC4(O)CCOCC4)C[C@@H]3C2)nn1)C1CCCCC1", "Human M4 (Homo sapiens, UniProt P08173)", "9%"),
    ("CC1(C)CC(N2C[C@H]3C[C@H](Nc4ccc(S(=O)(=O)C5CCCCC5)nn4)C[C@H]3C2)CCO1 (stereo partly drawn)", "Human M4 (Homo sapiens, UniProt P08173)", "5%"),
    ("CC(C)(C)CCN1C[C@H]2C[C@H](Nc3ccc(S(=O)(=O)c4ccccc4)nn3)C[C@H]2C1", "Human M4 (Homo sapiens, UniProt P08173)", "3%"),
]
